Values compiled from the nanobody polyreactivity screen of Harvey et al. (2022).

# METHOD SUMMARY: yeast display, Sf9 membrane polyspecificity reagent, FACS + sequencing; frameworks hold sequencing errors
READOUT LABEL: polyreactivity (PSR sort gate)

QVQLVESGGGLVQAGGSLRLSCAASGFSFYNYAMGWYRQAPGKERELVAAISWSGGSTHYADSVKGRFTISRDNAKNTVYLQMNSLKPEDTAVYYCAKVGVLGYYTYYYWGQGTQVTVSS : low polyreactivity
QVQLVESGGGLVQAGGSLRLSCAASGFSFPYAMGGYRQAPGKERELVAGISWSGGSTYYADSVKGRFTISRDNAKNTVYLQMNSLKPEDTAVYNCNKYVQSGGTYDYWGQGTQVTVSS : low polyreactivity
QVQLVESGGGLVQAGGSLRLSCAASGIIFYWYAMGWYRQSPGKERELVATITSTGGSTNYADSVKGRFTISRDNAKNTVYLQMNSLKPEDTAVYYCNADRYGIYYYSRLPFDYWGQGTQVTVSS : low polyreactivity
QVQLVESGGGLVQAGGSLRLSCAASGSIFRWYTMGWYRQAPGKERELVAAISRSGGSTYYADSVKGRFTISRDNAKNTVYLQMNRLKPEDTAVYYCAADKFRHPYWDRYIYFHYDYWGQGTQVTVSS : low polyreactivity
QVQLVESGGGLVQAGGSLRLSCAASGIIFTYYAMGWYRPAPGKERELVAAISSGGGSTYYADSVKGRFTISRDNAKITVYLQMNSLKPEDTAVYYCNADYYFVYTYLHDYWGQGTQVTVSS : low polyreactivity

Exercise: Supply reported polyreactivity (PSR sort gate) belonging to this sequence: QVQLVESGGGLVQAGGSLRLSCAASGFTLHVYAMGWYRQAPGKERELVAAISTGGNTNYADSVKGRFTISRDNAKNTVYLQMNSLKAEDTAVYYCNARYTSRRSRRPYYEWGQGTQVTVSS
Solution: high polyreactivity

Exercise: Supply reported polyreactivity (PSR sort gate) belonging to this sequence: QVQLVESGGGLVQAGGSLRLSCAASGSTFRHNAMGWYRQAPGKERELVAAITRSGGRTFYADSVKGRFTISRDNAKNTVYLQMNSLKPEDTAVYYCWGLGTQVTVSS
Solution: low polyreactivity

----------
# METHOD SUMMARY: yeast display, Sf9 membrane polyspecificity reagent, FACS + sequencing; frameworks hold sequencing errors
READOUT LABEL: polyreactivity (PSR sort gate)

QVQLVESGGGLVQAGGSLRLSCAASGSILHAYAMGWYRQAPGKEREFVAAIRRRGGSTYYADSVKGRFTISRDNAKNTVYLQMNSLKPEDTAVYYCAARFPLIGDSGGKSDYWGQGTQVTVSS : high polyreactivity
QVHLVESGGGLVQAGGSLRLSCAASGFIFYYYAMGWYRQAPGKERELFARISRRGGSTYYADSVKGRFTISRDNAKNTVYLQMNSLKPEDTAVYYCAAVYLVYYGVSDMDYWGQGTKVTVSS : high polyreactivity

----------
# METHOD SUMMARY: yeast display, Sf9 membrane polyspecificity reagent, FACS + sequencing; frameworks hold sequencing errors
READOUT LABEL: polyreactivity (PSR sort gate)

Some solved cases for reference:
QVQLVESCGGLVQAGGSLRLSCAASGFIFRIYAMGWYRQAPGKERELVAAITWSGGRTFYADSVKGRFTISRDNAKNTVYLQMNSLKPEDTAVFYCAARGRSSGFGYWGQGTQVTVSS : high polyreactivity
QVQLVESRGGLVQAGGSLRLSCAASGITFPRYAMGWYRPAPGKERELVARITSGGRTNYADSVKGRFTISRDNAKNTVYLQMNSLKPEDTAFYYCNAVAQSGRYDYWGQGTQVTVSS : high polyreactivity
QVQLVESVGGLVQAGGSLRLSCAASGSIFAVNAMGWYRKAPGTERELVAAITSSGVDTYYADSVKGRFTISRDNAKNTVYLQMNSLKPEDTAVYYCAADDQLNWYDYWGQGTQVTVSS : low polyreactivity
QVHLVESGGGLVQAGGSLRLSCAASGRILSLYAMGWYRQAPGKERELVASINWSDGSTYYADSVKGRFTISRDNAKNTVYLQMNSLKPEDTAVYYCNVDVSSYVAGYDYWGQGTQVTVSS : low polyreactivity
QVQLVESGGGLVQAGGSLRLSCAASGRIFKYYAMGWYRQAPGKERELFAAISRGGSTYYADSVKGRFTISRDNAKNTVYLQMNSLKPEDTAVYYCNAYRHGYVAYRRYDYWGQGTQVTVSS : high polyreactivity
QVQLVESGGGLVQAGGSLRLSCAASGSIFVGYAMGWYRQAPGKERELVAAISQRGGITYYADSVKGRFTISRDNAKNTVYLQMNSLKPEDTAVYYCAAPRYLSYVRRYDYWGQGTQVTVSS : high polyreactivity
QVQLVESGGGLDQAGGSLRLRCAASGSTFYVNAIGWYRQAPGKERELVAAITSTGTTHNADSVKGRFTISRDNAKKTVYLQMNSLKPEDTAVYYCAAGDQYKTRRNGYGYWGQGTQVTVSS : high polyreactivity
QVQLVESGGGLVQAGGSLRLSSAAYGSIFDSNAMGWYRQAPGKERELVAAIRYSGGRTYYADSVKGRFTISRDNAKNTVYLQMNILKPEDTAVYYCAARSKVYKVGYNYWGQGTQVTVSS : high polyreactivity
QVQLVESGGGLVQAGGSLRLSCAASGSTFPDNAMVWYRQAPGKEREFVATITWRGGRTNYADSVKGRFTISRDNAMNTVYLQMNSLKPEDTAFYYCDKVVRYARSNEYDTWGQGTQLTVSS : low polyreactivity
QVQLVESGGGLVQAGGSHRLSSAASGSTFAYHHMGWYRQAPGKEREFVADIRSGGNTNYADSVKGRFTISRDNAKKTVYLLMNSLNPEDTAVYYCATDGYRIDVYHPDYRYDYWGQGSQVTVSS : low polyreactivity

Lab note: next sequence to report on.
Exercise: Supply reported polyreactivity (PSR sort gate) belonging to this sequence: QVHLVESGGGLVQAGGSLRLSCAASGRIINYYDMGWYRQAPGKERELVAAISRSGGRTYYADSVKGRFTISRDNAKNTVYLQMNSLKPEDNAVYYCAASDYQRYQPTPQYTYYYWGQGTQVTVSS
Solution: high polyreactivity
